The reported measurements were obtained from ChEMBL document CHEMBL5724914.

Cond: human gut metagenome, 24 h, 2 µM; further: call rule not given here
Observable: Bacterial Biotransformation

Compound	Bacterial Biotransformation
CN1C(=O)CC(C)(c2ccccc2)C1=O (configuration not stated) [METHSUXIMIDE]	Compound NOT metabolized
O=C(NCc1ccccc1)OCCO [BURAMATE]	Compound NOT metabolized
CCCc1nn(C)c2c(=O)[nH]c(-c3cc(S(=O)(=O)N4CCN(C)CC4)ccc3OCC)nc12.O=C(O)CC(O)(CC(=O)O)C(=O)O [SILDENAFIL CITRATE]	Compound NOT metabolized
COc1cc2c(c(OC)c1OC)-c1ccc(OC)c(=O)cc1[C@@H](NC(C)=O)CC2 [COLCHICINE]	Compound metabolized

Batch request: Bacterial Biotransformation per item, same order as input.
1. O=C(O)CCc1nc(-c2ccccc2)c(-c2ccccc2)o1 [OXAPROZIN]
2. C[C@@H](CO)NC(=O)[C@@H]1C=C2c3cccc4[nH]cc(c34)C[C@H]2N(C)C1.O=C(O)/C=C\C(=O)O [ERGONOVINE MALEATE]
3. Cc1ccccc1N1C(=O)c2cc(S(N)(=O)=O)c(Cl)cc2NC1C (configuration not stated) [METOLAZONE]
4. NS(=O)(=O)c1cc2c(cc1Cl)N=C(CSCc1ccccc1)NS2(=O)=O [BENZTHIAZIDE]
5. CCN1CCCC1CNC(=O)c1cc(S(N)(=O)=O)ccc1OC (configuration not stated) [SULPIRIDE]
6. COc1ccc2[nH]c([S+]([O-])Cc3ncc(C)c(OC)c3C)nc2c1 (configuration not stated) [OMEPRAZOLE]
7. CC(C)(C(=O)O)c1ccc(C(O)CCCN2CCC(C(O)(c3ccccc3)c3ccccc3)CC2)cc1 (configuration not stated) [FEXOFENADINE]
8. Clc1ccc(Cn2c(CN3CCCC3)nc3ccccc32)cc1 [CLEMIZOLE]

Ans.
1. Compound metabolized
2. Compound metabolized
3. Compound metabolized
4. Compound NOT metabolized
5. Compound NOT metabolized
6. Compound metabolized
7. Compound NOT metabolized
8. Compound NOT metabolized

* * *

Assay comment: The drug is tested on Z-024 corresponding to pig gut metagenome with ENA study accession number: PRJEB37062 and ENA sample accession number: ERS12561823 for biotransformation under anaerobic condition. The drug concentrations were measured over 9 timepoints collected between 0 and 24 hours of incubation by liquid-chromatography-coupled mass spectrometry (LC–MS)
Cond: 2 µM
Observable: Bacterial Biotransformation

Take a look at these entries with their results.
> print(dat)
                                   compound                  observed
1  COc1c(C)c2c(c(O)c1C/C=C(\C)CCC(=O)OCCN1CCOCC1)C(=O)OC2 [MYCOPHENOLATE MOFETIL]      Compound metabolized
2  CN1C(=O)CCS(=O)(=O)C1c1ccc(Cl)cc1 (stereo not given) [CHLORMEZANONE]  Compound NOT metabolized
3  CC(CN1c2ccccc2Sc2ccccc21)N(C)C (stereo not given) [PROMETHAZINE]      Compound metabolized
4  Cc1ccc(/C(=C\CN2CCCC2)c2ccccn2)cc1 [TRIPROLIDINE]  Compound NOT metabolized

Next, consider the following compound.
Qu. // returns reported Bacterial Biotransformation for input O=C(Nc1ccccc1)OCC(CN1CCCCC1)OC(=O)Nc1ccccc1 (stereo not given) [DIPERODON]
Ans. Compound metabolized
